Biological target: UniProt:P21554
Sequence (P21554 whole entry): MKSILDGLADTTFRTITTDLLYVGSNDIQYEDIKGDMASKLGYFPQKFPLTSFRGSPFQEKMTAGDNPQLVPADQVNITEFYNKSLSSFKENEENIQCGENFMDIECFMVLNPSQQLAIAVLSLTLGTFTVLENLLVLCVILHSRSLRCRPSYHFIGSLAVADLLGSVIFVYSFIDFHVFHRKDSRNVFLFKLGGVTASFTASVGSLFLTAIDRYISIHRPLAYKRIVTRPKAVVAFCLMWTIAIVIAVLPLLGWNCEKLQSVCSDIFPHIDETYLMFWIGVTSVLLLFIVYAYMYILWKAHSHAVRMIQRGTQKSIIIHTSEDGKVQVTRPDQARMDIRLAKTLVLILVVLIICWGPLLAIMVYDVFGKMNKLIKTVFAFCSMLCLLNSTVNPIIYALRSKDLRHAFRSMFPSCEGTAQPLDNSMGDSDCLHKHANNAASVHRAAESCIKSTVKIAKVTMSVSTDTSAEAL
Assay: cell-based
Task for the reader: assign each of the following compounds its reported log10 of EC50.
Lab note - EC50 converted to log10 from values in nM.

Examples from the recorded data:
compound="COc1ccc(/C=C2\\CNCc3c(C(=O)NC(C)c4ccccn4)nn(-c4ccc(Cl)cc4Cl)c32)cc1 (centres unmarked) [Cpd 49]" test_value=0.00
compound="COC(=O)N1C/C(=C\\c2ccc(F)cc2)c2c(c(C(=O)NC(C)c3ccccn3)nn2-c2ccc(Cl)cc2Cl)C1 (centres unmarked) [Cpd 23]" test_value=0.60
compound="COc1ccc(/C=C2\\CN(C(C)=O)Cc3c(C(=O)N[C@H](C)c4ccccc4)nn(-c4ccc(Cl)cc4Cl)c32)cc1 [Cpd 42]" test_value=0.00
compound="COc1ccc(/C=C2\\CN(C(C)=O)Cc3c(C(=O)N[C@H](C)c4ccccn4)nn(-c4ccc(Cl)cc4Cl)c32)cc1 [Cpd 97]" test_value=1.00
compound="CC(NC(=O)c1nn(-c2ccc(Cl)cc2)c2c1CNC/C2=C\\c1ccc(F)cc1)c1ccccn1 (centres unmarked) [Cpd 75]" test_value=1.60

Could I get log10 of EC50 for every one of these entries?
1. CC(NC(=O)c1nn(-c2ccc(Cl)cc2Cl)c2c1CN(S(C)(=O)=O)C/C2=C\c1ccc(F)cc1)c1ccccn1 (centres unmarked) [Cpd 27]
2. COc1ccc(/C=C2\CN(S(=O)(=O)N(C)C)Cc3c(C(=O)NC(C)c4ccccn4)nn(-c4ccc(Cl)cc4Cl)c32)cc1 (centres unmarked) [Cpd 64]
3. CCNC(=O)N1C/C(=C\c2ccc(F)cc2)c2c(c(C(=O)NC(C)c3ccccn3)nn2-c2ccc(Cl)cc2)C1 (centres unmarked) [Cpd 77]
4. C[C@@H](NC(=O)c1nn(-c2ccc(Cl)cc2Cl)c2c1CN(S(C)(=O)=O)C/C2=C\c1ccc(F)cc1)c1ccccc1 [Cpd 17]
5. CCNC(=O)N1C/C(=C\c2ccc(F)cc2)c2c(c(C(=O)NC(C)c3ccccn3)nn2-c2ccc(Cl)cc2Cl)C1 (centres unmarked) [Cpd 24]
6. C[C@@H](NC(=O)c1nn(-c2ccc(Cl)cc2Cl)c2c1CN(S(C)(=O)=O)C/C2=C\c1ccc(F)cc1)c1ccccn1 [Cpd 140]
7. COc1ccc(/C=C2\CN(C(=O)OC(C)(C)C)Cc3c(C(=O)N[C@H](C)c4ccccn4)nn(-c4ccc(Cl)cc4Cl)c32)cc1 [Cpd 89]

## Result
1. 0.78
2. 0.00
3. 1.00
4. 0.78
5. 1.30
6. 0.30
7. 0.70

Could I get log10 of EC50 for every one of these entries?
1. COc1ccc(/C=C2\CN(S(=O)(=O)N(C)C)Cc3c(C(=O)NN4CCCCC4)nn(-c4ccc(Cl)cc4Cl)c32)cc1 [Cpd 58]
2. COc1ccc(/C=C2\CN(C(=O)OC(C)(C)C)Cc3c(C(=O)NN4CCCCC4)nn(-c4ccc(Cl)cc4Cl)c32)cc1 [Cpd 37]

## Result
1: 0.48; 2: 0.70
